src = the supplement of paper PMC6555819

test system: LXRa homodimer (NR concentration 270 nM); experiment: PBM binding z-score (relative to random genomic background probes); higher = stronger binding; sequences stand for … in GC…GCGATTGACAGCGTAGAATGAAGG
Entries and their PBM binding z-score

{"monomer sequence": "CTCGAAAGGTCGGTTGAGGTTAGTATACGGATAA", "test target": "LXRa homodimer (NR concentration 270 nM)", "PBM binding z-score": 0.205}
{"monomer sequence": "CCGACTGGGGTAAGGTTACCATAACGCACAGCCA", "test target": "LXRa homodimer (NR concentration 270 nM)", "PBM binding z-score": -0.0991}
{"monomer sequence": "TCATATAGGTAAACAGGTCAAAGTCCGTAAGTTA", "test target": "LXRa homodimer (NR concentration 270 nM)", "PBM binding z-score": 2.04}
{"monomer sequence": "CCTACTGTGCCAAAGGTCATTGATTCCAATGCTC", "test target": "LXRa homodimer (NR concentration 270 nM)", "PBM binding z-score": 5.32}
{"monomer sequence": "CCTTGCGGGTCAAGGTTATAGCACGGGTGGTACG", "test target": "LXRa homodimer (NR concentration 270 nM)", "PBM binding z-score": 0.11}
{"monomer sequence": "CCTAGCAGGCCAATCTGGGTGACTCAAGGCTTGA", "test target": "LXRa homodimer (NR concentration 270 nM)", "PBM binding z-score": -0.891}
{"monomer sequence": "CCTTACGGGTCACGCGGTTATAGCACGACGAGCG", "test target": "LXRa homodimer (NR concentration 270 nM)", "PBM binding z-score": 0.11}
{"monomer sequence": "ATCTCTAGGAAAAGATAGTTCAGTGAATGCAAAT", "test target": "LXRa homodimer (NR concentration 270 nM)", "PBM binding z-score": 0.457}
{"monomer sequence": "TCGAGTAGGTCAGGGGCATTCAGAATGGCGTCGA", "test target": "LXRa homodimer (NR concentration 270 nM)", "PBM binding z-score": -0.495}
{"monomer sequence": "CCTAGTTGGTCATGGTCACACACGCTATAGGTAC", "test target": "LXRa homodimer (NR concentration 270 nM)", "PBM binding z-score": 0.431}
{"monomer sequence": "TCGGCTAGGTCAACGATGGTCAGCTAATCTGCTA", "test target": "LXRa homodimer (NR concentration 270 nM)", "PBM binding z-score": -0.307}
{"monomer sequence": "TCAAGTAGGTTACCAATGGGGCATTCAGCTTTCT", "test target": "LXRa homodimer (NR concentration 270 nM)", "PBM binding z-score": -0.145}
{"monomer sequence": "TCTAGTTGGTCACGGAGGTCACACAAGACGGGTA", "test target": "LXRa homodimer (NR concentration 270 nM)", "PBM binding z-score": 2.41}
{"monomer sequence": "AGTCAAAGTTCAGGTCGAGGTAACGTAAAGCACG", "test target": "LXRa homodimer (NR concentration 270 nM)", "PBM binding z-score": 1.87}
{"monomer sequence": "ATCGAAAGCTCGAAGGTGAGTATACCCACCCGAA", "test target": "LXRa homodimer (NR concentration 270 nM)", "PBM binding z-score": -0.677}
{"monomer sequence": "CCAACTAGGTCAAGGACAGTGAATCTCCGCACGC", "test target": "LXRa homodimer (NR concentration 270 nM)", "PBM binding z-score": 0.634}
{"monomer sequence": "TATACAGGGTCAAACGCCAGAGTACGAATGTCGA", "test target": "LXRa homodimer (NR concentration 270 nM)", "PBM binding z-score": 3.43}
{"monomer sequence": "CGTCAAAGTTCAAGGTATCGTAACAGAAAGCAGC", "test target": "LXRa homodimer (NR concentration 270 nM)", "PBM binding z-score": 2.28}
{"monomer sequence": "CAAACTAGGTCAAGGTCGAAGTCGGTTTGTGCCA", "test target": "LXRa homodimer (NR concentration 270 nM)", "PBM binding z-score": 0.706}
{"monomer sequence": "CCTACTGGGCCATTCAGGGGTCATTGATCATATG", "test target": "LXRa homodimer (NR concentration 270 nM)", "PBM binding z-score": 3.43}
{"monomer sequence": "GCTAATAGTTGAAAGGGCAACCGAATGATTCTCG", "test target": "LXRa homodimer (NR concentration 270 nM)", "PBM binding z-score": -0.065}
{"monomer sequence": "TCGAGTAGGTTACCAATGGGCCATTCAGCTTTCT", "test target": "LXRa homodimer (NR concentration 270 nM)", "PBM binding z-score": -0.585}
{"monomer sequence": "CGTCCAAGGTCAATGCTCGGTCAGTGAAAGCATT", "test target": "LXRa homodimer (NR concentration 270 nM)", "PBM binding z-score": 2.7}
{"monomer sequence": "GATACAGGGTCAGCTAGAGGCCAGAGTTTGGAAA", "test target": "LXRa homodimer (NR concentration 270 nM)", "PBM binding z-score": -0.116}
{"monomer sequence": "AGAATGACGTTATACGTAGATCAGGGAAGAAAGT", "test target": "LXRa homodimer (NR concentration 270 nM)", "PBM binding z-score": -0.265}
{"monomer sequence": "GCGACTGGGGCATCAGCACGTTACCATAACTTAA", "test target": "LXRa homodimer (NR concentration 270 nM)", "PBM binding z-score": -0.429}
{"monomer sequence": "CCTGGTAGGTCAATGGTCAGCTAAAGCAGCTCGC", "test target": "LXRa homodimer (NR concentration 270 nM)", "PBM binding z-score": 0.425}
{"monomer sequence": "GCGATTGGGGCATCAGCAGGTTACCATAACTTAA", "test target": "LXRa homodimer (NR concentration 270 nM)", "PBM binding z-score": -0.243}
{"monomer sequence": "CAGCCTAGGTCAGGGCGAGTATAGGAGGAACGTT", "test target": "LXRa homodimer (NR concentration 270 nM)", "PBM binding z-score": -0.437}
{"monomer sequence": "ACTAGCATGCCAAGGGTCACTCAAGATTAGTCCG", "test target": "LXRa homodimer (NR concentration 270 nM)", "PBM binding z-score": 0.285}
{"monomer sequence": "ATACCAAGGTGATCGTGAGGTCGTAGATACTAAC", "test target": "LXRa homodimer (NR concentration 270 nM)", "PBM binding z-score": 0.236}
{"monomer sequence": "GGAACGAGGGCATCCGAGTTGATAGCATGGCGAT", "test target": "LXRa homodimer (NR concentration 270 nM)", "PBM binding z-score": -0.543}
